Recorded soluble fraction (log2) by entry
# experimental_details: soluble fraction after stress (log2 fold change); higher = more stays soluble; pooled small domains, quantitative proteomics
# reported_conditions: stress: pH 4
The response must contain the number and no unit.

>>> print(df.to_string())
                                      chain  endpoint_value
0  HMESYTEEMLEKMSVSKLRTIARELQVDNMTREQIRFGKKTELIQNILEFTGREIENMQLYDK          -0.357
1  HMNETHANKVYNFLKKKKKPLSAYEILKELASEGISAPTTIYRALNKLVSNGLIHKIESLNAWTV           0.185
2  HMKFIPPSLEEARAYFVEKGSSEPEAEKFVNHFDSIGWKVGRARTPMKKWKSAANNWIANNREWNQ          -0.166

Q) Please report the recorded soluble fraction (log2) for `HMEKAISSLTLEEAKKRLEMVRSEKDASLQIYKETGSETARVTAENYGKEENSLLLHISEMSNIV` .
A) -0.209

Q) Please report the recorded soluble fraction (log2) for `HMEQVQQIPIEELFPFKEHPFKVLDDEAMQRTVESVAQYGVLAPLIARPRPEGGYEIISGHRRQHAAELYR` .
A) -0.445

Q) Please report the recorded soluble fraction (log2) for `HMKTLELIAAIRKRIAGGYAGADGRLPNIGEIAKDFSVSPMTAQKAVRALVEAGVLTSTRRKGVFLKQPAS` .
A) 0.354

Q) Please report the recorded soluble fraction (log2) for `HMAPVVAILTRQLPLPQAQQLAGQTALVRVVKGGPGNEAELEFAGQNIQVKLPPGRQLTAGEMVTVAFALS` .
A) -0.0882

Q) Please report the recorded soluble fraction (log2) for `HMEESEMIAFATVAHRIVGKPVEAVMRSYRNRDNIPADIAAIVSSKFTFSVTMAEASYRNPKKSYQVNSII` .
A) 0.22

Q) Please report the recorded soluble fraction (log2) for `HMAKPVKSPLPGSVIKVAVKVGQQIKRGDLLLTLESMKMENSILAEKDGVVKNIHVQAGQSVMQDDLLLDI` .
A) -0.957

Q) Please report the recorded soluble fraction (log2) for `HMDSNFNYELVGFRLDDMGLNSSVIVKRNNQEFVIQKGDLLENKYLLNSVTKKNINFSYLGKNYQI` .
A) -0.731

Q) Please report the recorded soluble fraction (log2) for `HMKLTALWTANPKISAPIYSEPSTQSKTLGRIYQGASVKVYSFDPEWAYINSSGVVGYVLRRHLE` .
A) 0.326

Q) Please report the recorded soluble fraction (log2) for `HMYALGIPVSQYRRTTQVLGHESSYPIAYEDEKQDDDFYLFKFPNIDEYDFKKIVILLKQNGITT` .
A) -0.338

Q) Please report the recorded soluble fraction (log2) for `HMEKLSMLKIKELFRLAIEMNLSHRQIAQSLNVSHTVVNRYLKRFKKSNLSYETLLKLGDKEIISALYEH` .
A) -0.0551

Q) Please report the recorded soluble fraction (log2) for `HMKTPETSEYVVQAGDSLRRILTERYGAKEQDLPYLYRQFRLLNPKVSSLDNIHAGTKVRIPLVASVL` .
A) -0.0112

Q) Please report the recorded soluble fraction (log2) for `HMHHIDTAWFRGKMREHRLTQEAVGQAIGLERSMVSKIIKGTVSFNARKASAWAQLLRVSESEILERVGI` .
A) -0.379

Q) Please report the recorded soluble fraction (log2) for `HMSASEKLFEARKNLNIVNVLGKNPVDRYDIVKILKHGDHYHIYDSKGNEGITYTNPKSLYPEAEFGEYQG` .
A) -0.228

Q) Please report the recorded soluble fraction (log2) for `HMEISPGDVFKQLPGIGDDLSRRVVESLGIQSLEELESAAHDGRLEQVEGFGERRVQMVRAVLTGMLS` .
A) -1.04

Q) Please report the recorded soluble fraction (log2) for `HMDKSPVLQLNRDVPAGQQISADDFRTVEIGADGAFRSVPSSDLNAMVGSYAKVRLIAGTLLAREALQSG` .
A) -0.0884

Q) Please report the recorded soluble fraction (log2) for `HMNAMKPVLTVSLGVHTDSLSRRLNEEGIIYRWQQAASEQLLLVDSESSSERIAELIHDWRLEQSSS` .
A) -0.051

Q) Please report the recorded soluble fraction (log2) for `HMENKIIKNAAHATLKVKKDAGIEITTELIREAVILFHRIYSPNDNPNINWERIINELESHYT` .
A) -0.993

Q) Please report the recorded soluble fraction (log2) for `HMPDLSEDEEKIVSLLRDNNDLNVNIIVMRTQLPSATVTSSLFSLELKGVVRMYAGGMYHLM` .
A) 0.0385

Q) Please report the recorded soluble fraction (log2) for `HMALLKRQDEILMYLYTQNKWITGNELAQLFHVSLRTIRNDISFINTEKSNSVLSNRNKGYHIAKDFVYNE` .
A) -0.0758

Q) Please report the recorded soluble fraction (log2) for `HMLTRYNVNYYYNGEILQRRKVAEGSAAERITYLSGSLEVTDWYTEADLLRKYDFTEPVTGDLNLYAFARI` .
A) -0.556

Q) Please report the recorded soluble fraction (log2) for `HMTLSVRQRMSQIINKIDVSNFTDFTKLFDINEGRLGVAVTFLAILELLKDTMIDVIQNEEFAPLHIKVSS` .
A) -0.339

Q) Please report the recorded soluble fraction (log2) for `HMFELVKISENIPIRDLAETLKTTPNEIIKELMVFGVLANINQTLNFDLASKVADKLGFEVELL` .
A) -0.363

Q) Please report the recorded soluble fraction (log2) for `HMSFGESLKKLSIALNSIRKLATTDAGKKDPKVADLLGQIRDTFNSYRTHLRKNYPDLYSGIKNQL` .
A) -0.311
